- EXPERIMENTAL TARGET: human GPR119 (Homo sapiens, UniProt Q8TDV5)
- Sequence (Q8TDV5 whole entry): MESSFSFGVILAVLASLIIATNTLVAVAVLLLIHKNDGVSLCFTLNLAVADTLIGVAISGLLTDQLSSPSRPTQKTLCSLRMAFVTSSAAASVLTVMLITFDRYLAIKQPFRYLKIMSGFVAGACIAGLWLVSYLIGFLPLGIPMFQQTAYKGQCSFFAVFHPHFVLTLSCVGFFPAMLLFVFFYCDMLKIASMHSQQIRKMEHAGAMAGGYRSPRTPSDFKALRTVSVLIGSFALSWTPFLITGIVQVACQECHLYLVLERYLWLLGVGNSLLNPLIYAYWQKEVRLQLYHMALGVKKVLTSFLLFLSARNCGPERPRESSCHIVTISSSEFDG
- ASSAY OVERVIEW: Functional cellular assay measuring GPR119-mediated cAMP release (HTRF), HEK-293 cells stably expressing recombinant GPR119
- TEST CONDITIONS: cell line expressing human GPR119; cAMP response, 30 minutes at room temperature
pEC50: −log10 of the molar value.
ENDPOINT: pEC50

O=C1CCc2c(F)cc(N3CC[C@@H](Oc4ccc(OCCCF)nc4)C3=O)cc21 | 7.82

P = O=C1CCc2c(F)cc(N3CC[C@@H](Oc4ccc(OCc5ccccc5)nc4)C3=O)cc21
Q = O=C1CCc2c(F)cc(N3CC[C@@H](Oc4cnc(OCC5CC5)c(Br)c4)C3=O)cc21
R = O=C1CCc2c(F)cc(N3CC[C@@H](Oc4ccc(OC5CCCC5)nc4)C3=O)cc21
Returns the items ordered by pEC50, from maximum to minimum. // rank by listing labels in the order requested R, Q, P

----------
- EXPERIMENTAL TARGET: human GPR119 (Homo sapiens, UniProt Q8TDV5)
- ASSAY OVERVIEW: Functional cellular assay measuring GPR119-mediated cAMP release (HTRF), HEK-293 cells stably expressing recombinant GPR119
- TEST CONDITIONS: cell line expressing human GPR119; cAMP response, 30 minutes at room temperature
ENDPOINT: EC50 (nM)

// below: answered molecules
O=C1CCc2c(F)cc(N3CC[C@@H](Oc4ccc(OC5CCC5)nc4)C3=O)cc21 [Example 2-72] | 16
CCCCSc1ccc(O[C@@H]2CCN(c3cc(F)c4c(c3)C(=O)CC4)C2=O)cn1 [Example 3-07] | 11
COCCOc1ccc(O[C@@H]2CCN(c3cc(F)c4c(c3)C(=O)CC4)C2=O)cn1 [Example 2-13] | 141
CC(C)c1noc(-c2ccc(O[C@@H]3CCN(c4cc(F)c5c(c4)C(=O)CC5)C3=O)cn2)n1 [Example 3-02] | 141

I = CCOc1cc(O[C@@H]2CCN(c3cc(F)c4c(c3)C(=O)CC4)C2=O)ccn1 [Example 5-04]
II = O=C1CCc2c(F)cc(N3CC[C@@H](Oc4ccc(OCCN5CCCC5=O)nc4)C3=O)cc21 [Example 2-56]
III = O=C1CCc2ccc(N3CC[C@@H](Oc4ccc(OCC5CC5)nc4)C3=O)cc21 [Example 1-12]
IV = O=C1CCc2c(F)cc(N3CC[C@@H](Oc4ccc(SC5CC5)nc4)C3=O)cc21 [Example 3-16]
# rank_down: sort by EC50, max first In your reply, arrange the labels in the requested order. II, III, I, IV
(II: 9300 nM, III: 327 nM, I: 169 nM, IV: 19 nM)

----------
- EXPERIMENTAL TARGET: UniProt Q8TDV5
- ASSAY OVERVIEW: Functional cellular assay measuring GPR119-mediated cAMP release (HTRF), HEK-293 cells stably expressing recombinant GPR119
- TEST CONDITIONS: cell line expressing human GPR119; cAMP response, 30 minutes at room temperature
ENDPOINT: EC50 (nM)

O=C1CCc2c(F)cc(N3CC[C@@H](Oc4ccc(OCC5CCCCO5)nc4)C3=O)cc21 (stereo partly shown) | 154

P = CC1(COc2ccc(O[C@@H]3CCN(c4cc(F)c5c(c4)C(=O)CC5)C3=O)cn2)COC1
Q = Cn1ccnc1COc1ccc(O[C@@H]2CCN(c3cc(F)c4c(c3)C(=O)CC4)C2=O)cn1
R = CC(C)COc1ccc(O[C@@H]2CCN(c3cc(F)c4c(c3)C(=O)CC4)C2=O)cn1
Order the entries by their reported EC50, beginning at the minimum. Please express your ranking as an ordered list of the labels. R, P, Q
(R: 7 nM, P: 99 nM, Q: 24300 nM)
